tested on: Staphylococcus aureus No. 100 KC; experiment: Antibacterial specific activity, twofold dilutions, visual growth evaluation; assay type: cell-based; conditions: S. aureus 100 KC; 36° C., 24 hours
RECORDED_METRIC: MIC (µM)
Give just the numeric value; µM need not be written.

Give MIC (Staphylococcus aureus No. 100 KC) of the following molecule: C=CC1=C(C)c2cc3[n-]c(cc4[n-]c(cc5nc(cc1n2)C(C)=C5C=C)c(C)c4CCC(=O)N[C@@H](CCCNC(=N)N)C(N)=O)c(CCC(=O)N[C@@H](CCCNC(=N)N)C(N)=O)c3C.[Cl-].[Fe+3] 2.6

Give MIC (Staphylococcus aureus No. 100 KC) of the following molecule: C=CC1=C(C)C2=Cc3c(C=C)c(C)c4[n]3[Fe]([Cl])[n]3c(c(C)c(CCC(=O)N[C@@H](CCCNC(=N)N)C(=O)OC)c3=CC3=NC(=C4)C(C)=C3CCC(=O)N[C@@H](CCCNC(=N)N)C(=O)OC)=CC1=N2 [XV, reference compound] 50

Give MIC (Staphylococcus aureus No. 100 KC) of the following molecule: C=CC1=C(C)c2cc3[n-]c(cc4[n-]c(cc5nc(cc1n2)C(C)=C5C=C)c(C)c4CCC(=O)N[C@@H](CO)C(N)=O)c(CCC(=O)N[C@@H](CO)C(N)=O)c3C.[Cl-].[Fe+3] 0.52

Give MIC (Staphylococcus aureus No. 100 KC) of the following molecule: C=CC1=C(C)c2cc3[n-]c(cc4[n-]c(cc5nc(cc1n2)C(C)=C5C=C)c(C)c4CCC(=O)N[C@@H](CO)C(=O)O)c(CCC(=O)N[C@@H](CO)C(=O)O)c3C.[Cl-].[Fe+3] [VI, 6,7-bis-(N^α-Seryl]-Protohemin (IX)] 5.21

###

test system: Vancomycin-resistant Enterococcus faecium 569; assay: Antibacterial specific activity, twofold dilutions, visual growth evaluation; format: cell-based; conditions: Vancomycin-resistant E. faecium 569; 36° C., 24 hours
RECORDED_METRIC: MIC

As a guide, the following entries are already answered.
What measured MIC goes with C=CC1=C(C)C2=Cc3c(C=C)c(C)c4[n]3[Fe]([Cl])[n]3c(c(C)c(CCC(=O)NCC(=O)OC)c3=CC3=NC(=C4)C(C)=C3CCC(=O)NCC(=O)OC)=CC1=N2 [XVII, reference compound] ? >50 µM

What measured MIC goes with C=CC1=C(C)C2=Cc3c(C=C)c(C)c4[n]3[Fe]([Cl])[n]3c(c(C)c(CCC(=O)N[C@@H](CCCNC(=N)N)C(=O)OC)c3=CC3=NC(=C4)C(C)=C3CCC(=O)N[C@@H](CCCNC(=N)N)C(=O)OC)=CC1=N2 [XV, reference compound] ? >50 µM

What measured MIC goes with C=CC1=C(C)c2cc3[n-]c(cc4[n-]c(cc5nc(cc1n2)C(C)=C5C=C)c(C)c4CCC(=O)N[C@@H](CCC(=O)NCCO)C(=O)NCCO)c(CCC(=O)N[C@@H](CCC(=O)NCCO)C(=O)NCCO)c3C.[Cl-].[Fe+3] [XI] ? >50.0 µM

What measured MIC goes with C=CC1=C(C)c2cc3[n-]c(cc4[n-]c(cc5nc(cc1n2)C(C)=C5C=C)c(C)c4CCC(=O)N[C@@H](CO)C(N)=O)c(CCC(=O)N[C@@H](CO)C(N)=O)c3C.[Cl-].[Fe+3] [V] ? 25 µM

What measured MIC goes with C=CC1=C(C)c2cc3[n-]c(cc4[n-]c(cc5nc(cc1n2)C(C)=C5C=C)c(C)c4CCC(=O)N[C@@H](CO)C(=O)O)c(CCC(=O)N[C@@H](CO)C(=O)O)c3C.[Cl-].[Fe+3] [VI, 6,7-bis-(N^α-Seryl]-Protohemin (IX)] ? >50.0 µM

Now for a further compound.
What measured MIC goes with C=CC1=C(C)c2cc3[n-]c(cc4[n-]c(cc5nc(cc1n2)C(C)=C5C=C)c(C)c4CCC(=O)N[C@@H](CCCNC(=N)N)C(N)=O)c(CCC(=O)N[C@@H](CCCNC(=N)N)C(N)=O)c3C.[Cl-].[Fe+3] [II] ? 3.12 µM

Data origin, for the record: patent US9605013B2
